MEASURED_ON: T1, EsCas13d, nuclease-dead (Eubacterium siraeum, UniProt B0MS50, R295A;H300A;R849A;H854A)
T1 sequence: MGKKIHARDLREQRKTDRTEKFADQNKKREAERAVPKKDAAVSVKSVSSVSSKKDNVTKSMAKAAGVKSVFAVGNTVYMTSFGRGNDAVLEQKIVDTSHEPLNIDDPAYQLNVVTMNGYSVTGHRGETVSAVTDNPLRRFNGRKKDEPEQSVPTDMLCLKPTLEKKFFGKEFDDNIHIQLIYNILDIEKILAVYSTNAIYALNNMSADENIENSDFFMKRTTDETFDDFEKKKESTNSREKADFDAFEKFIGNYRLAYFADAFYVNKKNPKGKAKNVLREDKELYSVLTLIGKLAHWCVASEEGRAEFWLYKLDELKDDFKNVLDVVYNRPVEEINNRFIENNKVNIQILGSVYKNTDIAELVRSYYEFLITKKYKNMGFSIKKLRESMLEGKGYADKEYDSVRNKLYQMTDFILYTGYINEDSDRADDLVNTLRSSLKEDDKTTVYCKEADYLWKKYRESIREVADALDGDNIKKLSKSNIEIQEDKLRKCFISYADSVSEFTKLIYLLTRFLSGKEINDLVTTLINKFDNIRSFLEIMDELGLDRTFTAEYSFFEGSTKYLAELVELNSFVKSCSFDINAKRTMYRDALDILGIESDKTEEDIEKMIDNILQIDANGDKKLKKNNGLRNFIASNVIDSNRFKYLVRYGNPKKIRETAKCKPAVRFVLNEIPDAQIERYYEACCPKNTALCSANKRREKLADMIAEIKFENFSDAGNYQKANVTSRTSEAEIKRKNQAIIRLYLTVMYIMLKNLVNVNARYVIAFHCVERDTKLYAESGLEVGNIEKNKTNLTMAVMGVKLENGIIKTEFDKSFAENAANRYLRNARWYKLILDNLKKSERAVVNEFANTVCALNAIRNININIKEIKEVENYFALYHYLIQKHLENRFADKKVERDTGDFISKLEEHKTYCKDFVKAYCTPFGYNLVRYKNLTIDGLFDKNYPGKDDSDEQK
PROTOCOL_DESCRIPTION: crRNA (strand 1, pre-loaded); Mg2+; 40 mM Tris-HCl pH 7.5, 150 mM NaCl, 6 mM MgCl2, 1 mM DTT, 0.1% Tween-20, 0.2 mg/ml BSA; 25 C; 10 min per concentration, then washed
ASSAY_SETUP: tags: His6-TwinStrep-SUMO cleaved; N-terminal SNAP kept (SNAP-Surface 488); label: 3' end held by stalled T7 RNA polymerase
METRIC: Kd (nM)
Provide the reading as a plain figure in nM.

For record target 1 MT 5'PFS AAU 3'PFS CAU (mixed) RNA 1: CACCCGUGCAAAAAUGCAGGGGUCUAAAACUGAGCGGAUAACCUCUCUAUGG RNA 2: GGGAAUGGAUCCACAUCUACGAAUUCAAUCCAUAGAGAGGUUAUCCGCUCACAUAGAUCGGAAGAGCACACGU the listed Kd is 100

For record target 1 del16,del19 (mixed) RNA 1: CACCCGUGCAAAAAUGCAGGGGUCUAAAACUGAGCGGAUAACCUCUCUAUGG RNA 2: GGGAAUGGAUCCACAUCUACGAAUUCGUACCAAGGAGGUUAUCCGCUCACCGAGAUCGGAAGAGCACACGU the listed Kd is 73

For record target 3 C6A,U22C (mixed) RNA 1: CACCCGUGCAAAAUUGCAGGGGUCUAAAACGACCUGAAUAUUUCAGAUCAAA RNA 2: GGGAAUGGAUCCACAUCUACGAAUUCGUUCUUGAUCUGAAAUAUUAAGGUCUGCAGAUCGGAAGAGCACACGU the listed Kd is 49.5
